Data credit: ChEMBL document CHEMBL1122951

# key: entry, value: inhibition
assay target: Chitin synthase 1 (Candida albicans) (UniProt P23316)
Sequence (P23316 whole entry, looked up): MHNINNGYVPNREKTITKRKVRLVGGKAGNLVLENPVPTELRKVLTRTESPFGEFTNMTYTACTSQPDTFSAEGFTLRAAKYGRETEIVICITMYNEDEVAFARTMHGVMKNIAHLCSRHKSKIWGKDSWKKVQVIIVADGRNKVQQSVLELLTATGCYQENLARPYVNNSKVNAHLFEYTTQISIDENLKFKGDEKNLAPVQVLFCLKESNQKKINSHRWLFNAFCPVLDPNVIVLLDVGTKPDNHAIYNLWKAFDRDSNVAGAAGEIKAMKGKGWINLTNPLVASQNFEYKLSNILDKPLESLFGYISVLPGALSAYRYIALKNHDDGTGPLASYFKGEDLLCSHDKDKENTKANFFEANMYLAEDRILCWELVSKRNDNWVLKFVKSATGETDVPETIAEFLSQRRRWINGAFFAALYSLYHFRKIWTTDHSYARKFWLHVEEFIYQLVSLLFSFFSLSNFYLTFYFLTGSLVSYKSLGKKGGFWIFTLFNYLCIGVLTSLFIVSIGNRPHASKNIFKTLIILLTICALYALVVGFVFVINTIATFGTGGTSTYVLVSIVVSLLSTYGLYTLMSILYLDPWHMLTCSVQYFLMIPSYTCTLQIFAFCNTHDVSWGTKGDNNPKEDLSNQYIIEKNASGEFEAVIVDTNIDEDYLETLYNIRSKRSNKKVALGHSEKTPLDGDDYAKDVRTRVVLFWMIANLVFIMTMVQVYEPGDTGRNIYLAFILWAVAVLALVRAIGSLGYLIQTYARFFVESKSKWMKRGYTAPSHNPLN
experimental details: Inhibitory activity against chitin synthase from Candida albicans at a concentration 5 uM
Answer with the number, then the unit.

Worked cases, inhibition given:
NC(=O)NCCC[C@@H](N)C(=O)N[C@H](C(=O)O)[C@H]1O[C@@H](n2ccc(=O)[nH]c2=O)[C@H](O)[C@@H]1O    0%
N[C@@H](C(=O)N[C@@H](C(=O)O)[C@H]1O[C@@H](n2ccc(=O)[nH]c2=O)[C@H](O)[C@@H]1O)[C@H](O)Cc1ccc(O)cc1    79%
NC(=O)NCCC[C@@H](N)C(=O)N[C@@H](C(=O)O)[C@H]1O[C@@H](n2ccc(=O)[nH]c2=O)[C@H](O)[C@@H]1O    0%

### Prompt Annotate the molecule `C[C@H](N)C(=O)N(C)[C@@H](C(=O)O)[C@H]1O[C@@H](n2ccc(=O)[nH]c2=O)[C@H](O)[C@@H]1O` with its measured inhibition.
### Response 0%

### Prompt Annotate the molecule `C[C@@H](N)C(=O)N[C@@H](C(=O)O)[C@H]1O[C@@H](n2ccc(=O)[nH]c2=O)[C@H](O)[C@@H]1O` with its measured inhibition.
### Response 0%

----------
assay target: Chitin synthase 1 (Candida albicans)
experimental details: Inhibitory activity against chitin synthase from Candida albicans at a concentration 25 uM
value type: inhibition (%)
Number in %, nothing else.

Worked cases, inhibition given:
C[C@@H](O)[C@H](N)C(=O)N[C@@H](C(=O)O)[C@H]1O[C@@H](n2ccc(=O)[nH]c2=O)[C@H](O)[C@@H]1O    26
C[C@@H](N)CNC(C(=O)O)C1OC(n2ccc(=O)[nH]c2=O)C(O)C1O (some centres undefined)    0

### Prompt Annotate the molecule `N[C@@H](C(=O)N[C@@H](C(=O)O)[C@H]1O[C@@H](n2ccc(=O)[nH]c2=O)[C@H](O)[C@@H]1O)[C@H](O)Cc1ccc(O)cc1` with its measured inhibition.
### Response 96

### Prompt Annotate the molecule `NC(=O)NCCC[C@@H](N)C(=O)N[C@H](C(=O)O)[C@H]1O[C@@H](n2ccc(=O)[nH]c2=O)[C@H](O)[C@@H]1O` with its measured inhibition.
### Response 0

----------
assay target: Chitin synthase 1 (Candida albicans) (UniProt P23316)
experimental details: Inhibitory activity against chitin synthase from Candida albicans at a concentration 100 uM
# key: entry, value: inhibition
Number in %, nothing else.

Worked cases, inhibition given:
C[C@@H](O)[C@H](N)C(=O)N[C@@H](C(=O)O)[C@H]1O[C@@H](n2ccc(=O)[nH]c2=O)[C@H](O)[C@@H]1O    53
NC(=O)NCCC[C@@H](N)C(=O)N[C@@H](C(=O)O)[C@H]1O[C@@H](n2ccc(=O)[nH]c2=O)[C@H](O)[C@@H]1O    80

### Prompt Send back Chitin synthase 1 (Candida albicans) (UniProt P23316) inhibition of `C[C@@H](N)C(=O)N[C@@H](C(=O)O)[C@H]1O[C@@H](n2ccc(=O)[nH]c2=O)[C@H](O)[C@@H]1O` only.
### Response 0

### Prompt Send back Chitin synthase 1 (Candida albicans) (UniProt P23316) inhibition of `N[C@@H](C(=O)N[C@@H](C(=O)O)[C@H]1O[C@@H](n2ccc(=O)[nH]c2=O)[C@H](O)[C@@H]1O)[C@H](O)Cc1ccc(O)cc1` only.
### Response 100
